Field: self-splicing fitness (ln). Provide a value for each of the sequences that follow.
TEST_PROTOCOL: self-splicing fitness, log relative to wild type (ln ratio); higher = more splicing; Tetrahymena group I intron in knt gene, E. coli kanamycin selection, DiMSum; sequences stand for … in CUCUCU…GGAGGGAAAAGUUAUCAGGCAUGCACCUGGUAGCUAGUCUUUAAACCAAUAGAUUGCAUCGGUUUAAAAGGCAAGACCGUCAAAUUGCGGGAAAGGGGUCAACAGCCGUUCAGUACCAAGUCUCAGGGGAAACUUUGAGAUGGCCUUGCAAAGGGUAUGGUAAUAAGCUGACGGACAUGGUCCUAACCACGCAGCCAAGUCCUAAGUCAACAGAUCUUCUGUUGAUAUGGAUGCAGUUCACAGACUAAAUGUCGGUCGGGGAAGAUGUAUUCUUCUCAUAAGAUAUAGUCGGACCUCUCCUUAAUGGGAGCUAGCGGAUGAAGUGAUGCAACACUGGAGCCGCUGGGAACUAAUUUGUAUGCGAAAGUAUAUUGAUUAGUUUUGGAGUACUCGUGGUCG;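 also: selection with 25 µg/mL kanamycin versus none on LB agar overnight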
EXPERIMENTAL_PARAMETERS: 30 °C
Returns: the value as a bare number; no unit string appended.

Check the records and state self-splicing fitness (ln) for GACCAGCAAUAUUACGCGGA -1.06

Check the records and state self-splicing fitness (ln) for UCCUAGCAAUAUUACGCCCA -1.65

Check the records and state self-splicing fitness (ln) for UCUAAGCAAUAUUACGUCGC -2.06

---

TEST_PROTOCOL: self-splicing fitness, log relative to wild type (ln ratio); higher = more splicing; Tetrahymena group I intron in knt gene, E. coli kanamycin selection, DiMSum; sequences stand for … in CUCUCU…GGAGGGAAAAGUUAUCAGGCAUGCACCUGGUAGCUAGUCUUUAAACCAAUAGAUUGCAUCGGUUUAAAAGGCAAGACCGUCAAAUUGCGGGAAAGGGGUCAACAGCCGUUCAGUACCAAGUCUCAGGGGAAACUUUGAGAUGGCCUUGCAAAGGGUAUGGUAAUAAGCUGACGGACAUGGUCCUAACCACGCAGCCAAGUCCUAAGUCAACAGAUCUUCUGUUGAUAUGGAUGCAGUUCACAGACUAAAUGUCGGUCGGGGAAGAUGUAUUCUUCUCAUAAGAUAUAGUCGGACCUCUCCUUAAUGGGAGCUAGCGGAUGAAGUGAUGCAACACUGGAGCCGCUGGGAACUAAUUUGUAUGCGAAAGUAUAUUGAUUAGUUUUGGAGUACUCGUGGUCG
EXPERIMENTAL_PARAMETERS: 30 °C
QUANTITY: self-splicing fitness (ln)
Returns: the value as a bare number; no unit string appended.

Check the records and state self-splicing fitness (ln) for GUUGAGCAAUAUUACGUGCC -3.02

Check the records and state self-splicing fitness (ln) for GAGCAGCAAUAUUACGUGUA -2

Check the records and state self-splicing fitness (ln) for CGACAGCAAUAUUACGAGUU -2.98

Check the records and state self-splicing fitness (ln) for AAGAAGCAAUAUUACGAGUG -2.04

---

TEST_PROTOCOL: self-splicing fitness, log relative to wild type (ln ratio); higher = more splicing; Tetrahymena group I intron in knt gene, E. coli kanamycin selection, DiMSum; sequences stand for … in CUCUCU…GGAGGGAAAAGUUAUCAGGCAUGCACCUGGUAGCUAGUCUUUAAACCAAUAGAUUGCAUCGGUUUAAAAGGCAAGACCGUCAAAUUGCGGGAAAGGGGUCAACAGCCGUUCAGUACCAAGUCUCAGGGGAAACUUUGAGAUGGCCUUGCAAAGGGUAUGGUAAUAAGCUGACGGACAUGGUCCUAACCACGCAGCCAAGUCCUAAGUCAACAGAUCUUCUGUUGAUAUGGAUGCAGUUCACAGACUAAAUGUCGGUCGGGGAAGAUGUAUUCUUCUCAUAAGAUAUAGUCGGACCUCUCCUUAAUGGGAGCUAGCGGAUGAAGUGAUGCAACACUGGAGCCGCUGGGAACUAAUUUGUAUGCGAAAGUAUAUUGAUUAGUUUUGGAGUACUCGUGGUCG
EXPERIMENTAL_PARAMETERS: 30 °C
QUANTITY: self-splicing fitness (ln)
Returns: the value as a bare number; no unit string appended.

Check the records and state self-splicing fitness (ln) for ACAAAGCAAUAUUACGGGUG -1.21

Check the records and state self-splicing fitness (ln) for AAUUAGCAAUAUUACGUGCA -0.984

Check the records and state self-splicing fitness (ln) for CAGCAGCAAUAUUACGUCUG -3.11

Check the records and state self-splicing fitness (ln) for CGGCAGCAAUAUUACGAGGA -4.01

Check the records and state self-splicing fitness (ln) for AAAAAGCAAUAUUACGCUGU -2.69

Check the records and state self-splicing fitness (ln) for UCUCAGCAAUAUUACGCGCA -0.638

Check the records and state self-splicing fitness (ln) for CAAGAGCAAUAUUACGGGGC -1.99

Check the records and state self-splicing fitness (ln) for CCUUAGCAAUAUUACGUCGC -3.07

Check the records and state self-splicing fitness (ln) for GACCAGCAAUAUUACGUCUG -2.93

Check the records and state self-splicing fitness (ln) for CGCUAGCAAUAUUACGAAGA -2.12

Check the records and state self-splicing fitness (ln) for CGGUAGCAAUAUUACGUGAG -0.593

Check the records and state self-splicing fitness (ln) for CGGGAGCAAUAUUACGGGAG -2.76

Check the records and state self-splicing fitness (ln) for AUCUAGCAAUAUUACGUAUU -2.56

Check the records and state self-splicing fitness (ln) for GCGCAGCAAUAUUACGACGU -1.69

Check the records and state self-splicing fitness (ln) for UUGUAGCAAUAUUACGCACU 0.662

Check the records and state self-splicing fitness (ln) for GCCUAGCAAUAUUACGUUCC -1.1

Check the records and state self-splicing fitness (ln) for GUUAAGCAAUAUUACGAUCA -0.949

Check the records and state self-splicing fitness (ln) for GUCGAGCAAUAUUACGCUGU -1.73

Check the records and state self-splicing fitness (ln) for GGUGAGCAAUAUUACGGUAU -3.49

Check the records and state self-splicing fitness (ln) for UUUAAGCAAUAUUACGUGUG -1.24

Check the records and state self-splicing fitness (ln) for UGCAAGCAAUAUUACGAAUG -1.35

Check the records and state self-splicing fitness (ln) for CCAAAGCAAUAUUACGACGC -3.71

Check the records and state self-splicing fitness (ln) for GACCAGCAAUAUUACGCUUC -2.01

Check the records and state self-splicing fitness (ln) for AGGCAGCAAUAUUACGUGGU -3.88

Check the records and state self-splicing fitness (ln) for UUGAAGCAAUAUUACGUGUC -2.93

Check the records and state self-splicing fitness (ln) for ACAUAGCAAUAUUACGGCUG -0.175
